Read-out: Interleukin-1 alpha (IL1a), IL1A (gene 3552)
ASSAY_TEXT: BSK_LPS_IL1a: BioMAP Diversity Plus: LPS Assay for Interleukin-1 alpha (IL1a) Biomarker Activity (AID 2283080)
RECORDED_CONDITIONS: primary human HUVEC with PBMC; actives raise or lower the signal
Activity calls are given as the source filed them. Rule for the calls: active = hit-call score of the fitted dose curve at least 0.9, where 1 is the maximum; inactive = score below 0.9.
VALUE_KIND: outcome

Before answering, review these 4 worked examples.
# COMPOUND, outcome
rows = [
    ("COC(F)(C(F)F)C(F)(F)F (stereo not given)", "inactive"),
    ("FC(F)(F)C(F)(F)C(F)(F)C(F)(F)C(F)(F)C(F)(F)C(F)(F)CCI", "inactive"),
    ("C[C@]12CC[C@H]3C(=CCc4cc(O)ccc43)[C@@H]1CCC2=O", "inactive"),
    ("O=C(Cl)C(F)(F)C(F)(F)C(F)(F)C(F)(F)C(F)(F)C(F)(F)C(F)(F)F", "inactive"),
]

Continue with the next compound.
Query (compound): `O=C1c2c(O)ccc(Nc3ccc(CCO)cc3)c2C(=O)c2c([N+](=O)[O-])ccc(O)c21` ; field requested: outcome
inactive

====

Read-out: Plasminogen activator inhibitor-1 (PAI1), SERPINE1 (gene 5054)
ASSAY_TEXT: BSK_BE3C_PAI1: BioMAP Diversity Plus: BE3C Assay for Plasminogen activator inhibitor-1 (PAI1) Biomarker Activity (AID 2283037)
RECORDED_CONDITIONS: primary human bronchial epithelial cells; actives raise or lower the signal
Activity calls are given as the source filed them. The calls were made as follows: active = hit-call score of the fitted dose curve at least 0.9, where 1 is the maximum; inactive = score below 0.9.
# valid calls are y = active, n = inactive; nothing else

# outcome recorded in this test, key = `OCC(F)(F)C(F)(F)C(F)(F)CO`
n

====

ASSAY_TEXT: ATG_CRE_CIS: Attagene CIS-FACTORIAL HepG2 Assay for human cAMP Responsive Element (CRE) binding protein 3 (AID 2282926)
RECORDED_CONDITIONS: HepG2 CRE cis-reporter, Attagene multiplexed mRNA; actives raise or lower the signal
Procedure: ATG_CIS is a cell-based, multiplexed-readout assay that uses HepG2, a human liver cell line, with measurements taken at 24 hours after chemical dosing in a 24-well plate.ATG_CRE_CIS is one of 52 assay component(s) measured or calculated from the ATG_CIS assay. […] This assay endpoint, ATG_CRE_CIS, was analyzed with bidirectional fitting relative to DMSO as the negative control and baseline of activity. […]
The source made the active and inactive calls. Rule for the calls: active = hit-call score of the fitted dose curve at least 0.9, where 1 is the maximum; inactive = score below 0.9.
# valid calls are active, inactive; nothing else

# STRUCTURE_STRING, CATEGORY
records = [
    ("O=C(c1ccccc1)c1ccc(Cl)cc1", "inactive"),
    ("FC(F)(F)C(F)(F)C(F)(F)C(F)(F)C(F)(F)C(F)(F)CC[Si](Cl)(Cl)Cl", "inactive"),
    ("C[Si](C)O[Si](C)C", "inactive"),
    ("Brc1nc2ccccc2s1", "inactive"),
    ("CCCCOC(=O)[C@H](C)O", "inactive"),
]

# outcome recorded in this test, key = `CCN=c1cc2oc3cc(NCC)c(C)cc3c(-c3ccccc3C(=O)OCC)c-2cc1C`
active

# outcome recorded in this test, key = `CCN(CC)c1ccc2c(c1)Oc1cc(N(CC)CC)ccc1C21OC(=O)c2ccccc21`
inactive

# outcome recorded in this test, key = `O=S(=O)(O)c1ccc(Cl)cc1`
inactive

# outcome recorded in this test, key = `CCCCCCCCCCCC(=O)Cl`
inactive

# outcome recorded in this test, key = `CC(C)C(=O)OCc1ccccc1`
inactive

# outcome recorded in this test, key = `CN(N=O)C(=O)N[C@@H]1[C@@H](O)[C@H](O)[C@@H](CO)O[C@@H]1O`
inactive

# outcome recorded in this test, key = `OCCCCl`
inactive

# outcome recorded in this test, key = `CCOC(=O)CCC(C)=O`
inactive
